Biological target: NAD-dependent protein deacetylase sirtuin-3, mitochondrial (Homo sapiens, UniProt Q9NTG7)
Sequence (Q9NTG7 whole entry): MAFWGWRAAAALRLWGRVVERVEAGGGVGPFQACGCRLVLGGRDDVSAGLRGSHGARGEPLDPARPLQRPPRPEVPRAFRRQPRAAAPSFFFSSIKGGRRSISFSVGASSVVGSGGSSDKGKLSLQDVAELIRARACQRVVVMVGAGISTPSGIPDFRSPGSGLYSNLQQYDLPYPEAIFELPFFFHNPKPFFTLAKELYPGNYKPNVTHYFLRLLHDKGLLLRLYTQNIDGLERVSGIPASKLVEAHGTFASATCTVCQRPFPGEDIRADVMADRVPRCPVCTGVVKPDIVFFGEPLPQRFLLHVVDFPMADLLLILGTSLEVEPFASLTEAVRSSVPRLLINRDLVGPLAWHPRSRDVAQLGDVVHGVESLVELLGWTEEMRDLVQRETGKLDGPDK
quantity: IC50 (µM)

>>> reported_value("CC(/C=C/C(=O)NO)=C\\[C@@H](C)C(=O)c1ccc(N(C)C)cc1 [TRICHOSTATIN]")
7.88
